# System Under Test: human KHK-A (Homo sapiens (Human))
# Sequence (P50053 other isoform, or with tags, fused parts or gaps): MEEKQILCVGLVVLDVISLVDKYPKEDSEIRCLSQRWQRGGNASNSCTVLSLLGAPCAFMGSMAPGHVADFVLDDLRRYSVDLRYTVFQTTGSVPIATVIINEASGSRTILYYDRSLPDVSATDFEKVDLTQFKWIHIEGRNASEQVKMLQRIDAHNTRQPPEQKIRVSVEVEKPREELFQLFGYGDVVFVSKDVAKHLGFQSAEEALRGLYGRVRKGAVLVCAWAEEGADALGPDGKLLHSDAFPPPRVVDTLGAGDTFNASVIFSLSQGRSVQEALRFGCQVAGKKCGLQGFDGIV
# Method Description: KHK Biochemical Assay (IC50), ADP-Glo, KHK-A
# Particulars: ADP-Glo; average of at least two separate assays
pIC50: −log10 of the molar value.
Parameter: pIC50

C[C@H]1CCN1c1nc2c(c(-c3cc(C(N)=O)cc(C(N)=O)c3)n1)CCC2 [Example 116] ... 7.26
CNC(=O)c1ccc(-c2nc(N3CC[C@@H]3C)nc3c2CCC3)cc1 [Example 292] ... 7.18
C[C@H]1CCN1c1nc2c(c(-c3cccc(S(=N)(=O)c4ccccc4)c3)n1)CCC2 (some centres unmarked) [Example 878] ... 7.42
Cc1cc(-c2nc(N3CC[C@@H]3C)nc3c2CCC3)ccc1C(=O)N(C)C [Example 357] ... 6.91
C[C@H]1CCN1c1nc2c(c(-c3ccc(C(N)=O)c4ccccc34)n1)CCC2 [Example 144] ... 5.77
C[C@H]1CCN1c1nc2c(c(-c3ccnn3C)n1)CCC2 [Example 20] ... 6.83
C[C@H]1CCN1c1nc2c(c(-c3cccc(C(=O)NCc4ccccc4)c3)n1)CCC2 [Example 218] ... 6.38
C[C@H]1CCN1c1nc(-c2ccccc2)c2c(n1)[C@H]1C[C@H]1C2 (single isomer, unassigned) [Example 334] ... 5.03
C[C@H]1[C@H](O)CN1c1nc2c(c(-c3cccc(NS(=O)(=O)CC(=O)O)c3)n1)CCC2 [Example 82] ... 7.83
C[C@H]1CCN1c1nc2c(c(-c3cccc(C(N)=O)c3)n1)CCC2 [Example 8] ... 7.41

(a) NS(=O)(=O)c1cccc(-c2nc(N3CC[C@@H]4[C@H](O)C[C@@H]43)nc3c2CCC3)c1 (racemic) [Example 80]
(b) C[C@H]1CCN1c1nc2c(c(-c3cccc(S(=N)(=O)C4CCOCC4)c3)n1)CCC2 (some centres unmarked) [Example 880]
Q: Consider a and b . Which of these has its pIC50 at a higher number? Lab note: record the label of whichever item you select.
Ans: b
(b: 7.65, a: 6.06)

(A) C[C@H]1CCN1c1nc2c(c(-c3ccc4c(c3)CC(C(N)=O)C4)n1)CCC2 (some centres unmarked) [Example 140]
(B) C[C@H]1CCN1c1nc2c(c(-c3ccc4c(c3)NC(=O)C4(C)C)n1)CCC2 [Example 264]
Q: Select one. Lower pIC50: A or B Record your answer as the label of the chosen record.
Ans: B

(I) C[C@H]1CCN1c1nc2c(c(-c3cccc(NS(=O)(=O)CC(=O)O)c3)n1)CCC2 [Example 81]
(II) C[C@H]1CCN1c1nc2c(c(-c3cn[nH]c3)n1)CCC2 [Example 19]
Q: From the items above, decide which of I and II has the lower pIC50 reading. I would appreciate it if you answered with the label of your choice.
Ans: II

(A) C[C@H]1CCN1c1nc2c(c(-c3cc(C(N)=O)ns3)n1)CCC2 [Example 85]
(B) C[C@H]1CCN1c1nc2c(c(-c3cccc(CNC(=O)C(C)(C)O)c3)n1)CCC2 [Example 228]
Q: Lower value of pIC50 belongs to which: A or B ? Please indicate the selected item by its label.
Ans: A
(A: 5.95, B: 6.80)

(a) C[C@H]1CCN1c1nc2c(c(-c3cnn(C(F)F)c3)n1)CCC2 [Example 259]
(b) CC(=O)Nc1cccc(-c2nc(N3CC[C@@H]3C)nc3c2CCC3)c1 [Example 40]
(c) C[C@H]1CCN1c1nc2c(c(-c3ccc4c(c3)CC(CC(N)=O)C4)n1)CCC2 (some centres unmarked) [Example 135]
(d) C[C@H]1CCN1c1nc2c(c(-c3cccc(S(=O)(=O)NCC(=O)O)c3)n1)CCC2 [Example 74]
(e) C[C@H]1CCN1c1nc2c(c(-c3ccc(C(N)=O)s3)n1)CCC2 [Example 56]
Q: Give the ascending ranking of the items by reported pIC50. API: response body holds the labels in the requested order.
Ans: a, c, b, d, e

(a) CC1CC(NS(C)(=O)=O)c2ccc(-c3nc(N4CC[C@@H]4C)nc4c3CCC4)cc21 (some centres unmarked) [Example 894]
(b) C[C@H]1CCN1c1nc2c(c(-c3cc4cccc(C(N)=O)c4[nH]3)n1)CCC2 [Example 154]
(c) C[C@@H]1N(c2nc3c(c(-c4ccc(C(N)=O)cc4)n2)CCC3)C[C@@]1(C)O [Example 141]
Q: Put the compounds in ascending order of pIC50. Reply format: the labels, ordered as requested.
Ans: c, a, b

(A) Cc1cnc(-c2nc(N3CC[C@@H]3C)nc3c2CCC3)s1 [Example 342]
(B) C[C@H]1[C@H](O)CN1c1nc(-c2cc(F)c3c(c2)OC[C@@H]3NS(C)(=O)=O)c2c(n1)C(F)(F)CC2 (single isomer, unassigned) [Example 813]
(C) C[C@H]1CCN1c1nc(-c2cccc(C(N)=O)c2)c2c(cnn2C)n1 [Example 271]
Q: List from greatest to least pIC50. List the labels, following the order given in the request.
Ans: B, A, C

====

# System Under Test: human KHK-C (Homo sapiens (Human), UniProt P50053)
# Sequence (P50053 whole entry): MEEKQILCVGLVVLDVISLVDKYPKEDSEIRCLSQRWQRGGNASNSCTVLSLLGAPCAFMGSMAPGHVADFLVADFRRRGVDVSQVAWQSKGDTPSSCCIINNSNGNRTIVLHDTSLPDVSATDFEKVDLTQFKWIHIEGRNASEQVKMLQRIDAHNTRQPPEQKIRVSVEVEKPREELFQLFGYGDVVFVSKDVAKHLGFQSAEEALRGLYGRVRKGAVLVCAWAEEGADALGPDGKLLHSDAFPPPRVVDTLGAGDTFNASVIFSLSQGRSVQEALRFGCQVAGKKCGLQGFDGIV
# Method Description: KHK Biochemical Assay (IC50), ADP-Glo, KHK-C
# Particulars: ADP-Glo; average of at least two separate assays
Parameter: IC50 (nM)

Answered examples (2):
C[C@H]1CCN1c1nc(-c2cccc(S(N)(=O)=O)c2)c2c(n1)C(F)(F)CC2 ... 4.4
c1ccc(-c2nc(C3CCC3)nc3c2CCC3)cc1 ... 2230

(a) C[C@H]1CCN1c1nc2c(c(-c3cccc(CS(C)(=O)=O)c3)n1)CCC2
(b) COC(=O)Cc1cccc(-c2nc(N3CC[C@@H]3C)nc3c2CCC3)c1
Q: Among a and b , whose measured IC50 is the smaller figure? Kindly give the label for the entry you pick.
Ans: a

====

# System Under Test: human KHK-C (Homo sapiens (Human))
# Method Description: KHK Biochemical Assay (IC50), ADP-Glo, KHK-C
# Particulars: average of at least two separate assays
pIC50: −log10 of the molar value.
Parameter: pIC50

Worked examples, 4 molecules total:
[2H]C1([2H])[C@@H](O)[C@H](C)N1c1nc(-c2ccc3c(c2)OC[C@@H]3NS(C)(=O)=O)c2c(n1)C(F)(F)CC2 ... 9.22
C[C@H]1CCN1c1nc2c(c(-c3ccc4c(c3)C(=O)NC(=O)C4)n1)CCC2 ... 6.86
C[C@H]1[C@H](O)CN1c1nc(-c2ccc3c(c2)OC(CF)CNC3=O)c2c(n1)C(F)(F)CC2 (stereo partly shown) ... 8.48
CS(=O)(=O)N[C@H]1COc2cc(-c3nc(N4CC(F)(F)C4CO)nc4c3CCC4(F)F)ccc21 (stereo partly shown) ... 8.66

(I) C[C@H]1CCN1c1nc2c(c(-c3ccc(C4COCCN4)cc3)n1)CCC2 (stereo partly shown)
(II) C[C@H]1[C@H](O)CN1c1nc(-c2ccc(C3(N)COC3)c(F)c2)c2c(n1)C(F)(F)CC2
(III) C[C@H]1[C@H](O)CN1c1nc(-c2ccc3c(c2)CC[C@@]32COCC(=O)N2)c2c(n1)C(F)(F)CC2 (single isomer, unassigned)
Q: Could you please order the items by pIC50, going from the lowest number to the highest? Output spec: a listing of the labels in the requested order.
Ans: I, II, III

====

# System Under Test: human KHK-C (Homo sapiens (Human))
# Method Description: KHK Biochemical Assay (IC50), ADP-Glo, KHK-C
# Particulars: average of at least two separate assays
Parameter: IC50 (nM)

(P) C[C@H]1[C@H](O)CN1c1nc(-c2ccc(C3(F)CNC3)cc2)c2c(n1)C(F)(F)CC2
(Q) C[C@H]1[C@H](O)CN1c1nc(-c2cccc(S(C)(=O)=O)c2)c2c(n1)C(F)(F)CC2
Q: Compare the recorded IC50 of P and Q ; state which is larger. Respond with the label that goes with your answer.
Ans: Q

====

# System Under Test: human KHK-A (Homo sapiens (Human))
# Method Description: KHK Biochemical Assay (IC50), ADP-Glo, KHK-A
# Particulars: ADP-Glo; average of at least two separate assays
pIC50: −log10 of the molar value.
Parameter: pIC50

C[C@H]1CCN1c1nc(-c2cccc(C(N)=O)c2)c2c(n1)[C@@H]1CC[C@H]2C1 ... 6.95

(1) C[C@H]1CCN1c1nc2c(c(-c3ccncc3)n1)CCC2
(2) C[C@H]1CCN1c1nc(-c2ccccc2)c2c(n1)C1CCC2C1 (some centres unmarked)
(3) C[C@H]1CCN1c1nc2c(c(-c3cccc(S(=N)(=O)c4ccc(C#N)cc4)c3)n1)CCC2 (some centres unmarked)
(4) C[C@H]1[C@H](O)CN1c1nc2c(c(-c3ccc4c(c3)CN(C)C4=O)n1)CCC2
Q: In this exercise, place the 4 molecules in ascending sequence of their recorded pIC50. Would you mind listing the labels in the order asked for?
Ans: 2, 4, 1, 3
(2: 6.03, 4: 6.51, 1: 6.83, 3: 7.38)
